The values you see were collected from paper PMC7468908.

Assign IC50 to each entry below.
# Study target: OATP1B1 (Homo sapiens, UniProt Q9Y6L6)
# Construct: expressed in transfected cells; host or cells: A431
# Sequence (Q9Y6L6 whole entry): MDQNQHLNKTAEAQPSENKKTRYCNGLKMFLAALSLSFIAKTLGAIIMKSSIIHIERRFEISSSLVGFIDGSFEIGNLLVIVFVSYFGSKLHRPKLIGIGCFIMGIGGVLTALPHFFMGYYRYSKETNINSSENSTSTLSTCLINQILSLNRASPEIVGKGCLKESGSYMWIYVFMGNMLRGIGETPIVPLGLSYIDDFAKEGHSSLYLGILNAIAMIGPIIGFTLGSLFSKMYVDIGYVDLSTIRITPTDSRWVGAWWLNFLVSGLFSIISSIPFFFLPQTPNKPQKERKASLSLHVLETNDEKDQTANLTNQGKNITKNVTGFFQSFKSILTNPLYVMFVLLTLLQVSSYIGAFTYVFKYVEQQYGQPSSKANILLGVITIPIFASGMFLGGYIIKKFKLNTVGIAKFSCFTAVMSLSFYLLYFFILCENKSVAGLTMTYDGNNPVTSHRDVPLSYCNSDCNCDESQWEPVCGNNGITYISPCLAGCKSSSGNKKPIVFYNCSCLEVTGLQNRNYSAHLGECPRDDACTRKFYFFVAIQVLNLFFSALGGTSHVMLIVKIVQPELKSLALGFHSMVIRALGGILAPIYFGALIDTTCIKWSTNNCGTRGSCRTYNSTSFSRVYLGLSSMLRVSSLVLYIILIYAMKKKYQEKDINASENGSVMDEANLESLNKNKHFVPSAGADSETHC
# Assay explanation: OATP1B1-mediated pyranine uptake in A431 cells overexpressing OATP1B1
# Type: cell-based
# Conditions: 10 μM pyranine, 15 min, A431-OATP1B1 cells; read-out: IC50 for OATP1B1
Please reply with the bare figure in nM and do not write the unit itself.

Query :: Return reported IC50; argument: O=c1c(O)c(-c2ccc(O)c(O)c2)oc2cc(O)cc(O)c12 [Q, quercetin]
Result :: 1550

Query :: Return reported IC50; argument: COc1cc(-c2oc3cc(O)cc(O)c3c(=O)c2OC2OC(C(=O)O)C(O)C(O)C2O)ccc1O (stereo not shown) [I3G, isorhamnetin-3-glucuronide]
Result :: 5630

Query :: Return reported IC50; argument: O=c1c(O)c(-c2ccc(O)c(OS(=O)(=O)O)c2)oc2cc(O)cc(O)c12 [Q3′S, quercetin-3′-sulfate]
Result :: 330

Query :: Return reported IC50; argument: O=C(O)C1OC(Oc2c(-c3ccc(O)c(O)c3)oc3cc(O)cc(O)c3c2=O)C(O)C(O)C1O (stereo not shown) [Q3G, quercetin-3-glucuronide]
Result :: 4050
